# measuredOn: MAPK7 (Homo sapiens, UniProt Q13164)
# Sequence (Q13164 whole entry): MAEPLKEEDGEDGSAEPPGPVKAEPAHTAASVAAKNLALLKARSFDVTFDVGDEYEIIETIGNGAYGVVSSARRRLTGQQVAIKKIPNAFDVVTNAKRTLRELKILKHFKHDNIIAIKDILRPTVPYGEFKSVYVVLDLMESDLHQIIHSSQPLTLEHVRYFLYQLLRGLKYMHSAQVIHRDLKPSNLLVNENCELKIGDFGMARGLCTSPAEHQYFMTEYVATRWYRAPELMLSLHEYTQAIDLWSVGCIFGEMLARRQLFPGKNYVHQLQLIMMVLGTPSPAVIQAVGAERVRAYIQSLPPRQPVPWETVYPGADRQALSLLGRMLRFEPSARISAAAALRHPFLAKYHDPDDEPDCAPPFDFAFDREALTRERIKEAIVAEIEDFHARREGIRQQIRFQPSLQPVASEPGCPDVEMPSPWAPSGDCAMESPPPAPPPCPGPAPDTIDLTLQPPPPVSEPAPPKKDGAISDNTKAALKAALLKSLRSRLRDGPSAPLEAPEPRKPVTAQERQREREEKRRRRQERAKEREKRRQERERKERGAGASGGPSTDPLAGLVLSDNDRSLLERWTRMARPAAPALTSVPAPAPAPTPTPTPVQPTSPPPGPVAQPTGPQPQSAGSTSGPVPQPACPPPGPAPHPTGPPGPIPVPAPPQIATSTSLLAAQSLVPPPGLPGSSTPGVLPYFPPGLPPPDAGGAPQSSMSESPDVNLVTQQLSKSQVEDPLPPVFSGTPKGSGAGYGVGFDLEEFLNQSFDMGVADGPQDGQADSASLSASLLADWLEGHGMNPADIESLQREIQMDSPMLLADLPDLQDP
# protocolDescription: MAPK7 Western blot protein degradation assay in U-87 MG cells
# Format: cell-based
# Parameters: U-87 MG human glioblastoma cells, which express MAPK7; endogenous in cells; host or cells: U-87 MG
# conditionLabel: 48 hr, 100 nM
observable: MAPK7 degradation (100 nM)

• CCOc1cc(N2CCC(C(=O)NCc3ccc(-n4c(O)nnc4-c4cc(C(C)C)c(O)cc4O)cc3F)CC2)ccc1Nc1ncc2c(n1)N(C)c1ccccc1C(=O)N2C = C (< 33% degradation)
• CCOc1cc(N2CCC(C(=O)N3CCC(CN4CCN(Cc5ccc(-n6c(O)nnc6-c6cc(CC)c(O)cc6O)cc5)CC4)CC3)CC2)ccc1Nc1ncc2c(n1)N(C)c1ccccc1C(=O)N2C = C (< 33% degradation)
• CCOc1cc(N2CCC(C(=O)N3CCC(CN4CCN(Cc5ccc(-n6c(C(=O)NCC(F)(F)F)nnc6-c6cc(CC)c(O)cc6O)cc5)CC4)CC3)CC2)ccc1Nc1ncc2c(n1)N(C)c1ccccc1C(=O)N2C = C (< 33% degradation)
• CCOc1cc(N2CCC(C(=O)NCCOCc3ccc(-n4c(O)nnc4-c4cc(C(C)C)c(O)cc4O)cc3)CC2)ccc1Nc1ncc2c(n1)N(C)c1ccccc1C(=O)N2C = C (< 33% degradation)

---

# measuredOn: UniProtKB Q13164
# protocolDescription: MAPK7 Western blot protein degradation assay in U-87 MG cells
# Assay type: cell-based
# Parameters: U-87 MG human glioblastoma cells, which express MAPK7; endogenous in cells; host or cells: U-87 MG
# conditionLabel: 48 hr, 300 nM
observable: MAPK7 degradation (300 nM)

Worked examples, 4 molecules total:
- CCOc1cc(N2CCC(C(=O)N3CCC(CN4CCN(Cc5ccc(-n6c(C(=O)NCC(F)(F)F)nnc6-c6cc(CC)c(O)cc6O)cc5)CC4)CC3)CC2)ccc1Nc1ncc2c(n1)N(C)c1ccccc1C(=O)N2C [Compound 022]: B (33-66% degradation)
- CCOc1cc(N2CCC(C(=O)NCc3ccc(-n4c(O)nnc4-c4cc(C(C)C)c(O)cc4O)cc3F)CC2)ccc1Nc1ncc2c(n1)N(C)c1ccccc1C(=O)N2C [Compound 036]: B (33-66% degradation)
- CCOc1cc(N2CCC(C(=O)N3CCC(CN4CCN(Cc5ccc(-n6c(O)nnc6-c6cc(C(C)C)c(O)cc6O)cc5)CC4)CC3)CC2)ccc1Nc1ncc2c(n1)N(C)c1ccccc1C(=O)N2C.Cl [Compound 032]: A (>66% degradation)
- CCOc1cc(N2CCC(C(=O)N3CCN(Cc4ccc(-n5c(O)nnc5-c5cc(C(C)C)c(O)cc5O)cc4)CC3)CC2)ccc1Nc1ncc2c(n1)N(C)c1ccccc1C(=O)N2C.Cl [Compound 043]: A (>66% degradation)

Now look at this one.
-- ask Need MAPK7 degradation (300 nM), item CCOc1cc(N2CCC(C(=O)N3CCC(N4CCN(c5ccc(-n6c(O)nnc6-c6cc(C(C)C)c(O)cc6O)cc5)CC4)CC3)CC2)ccc1Nc1ncc2c(n1)N(C)c1ccccc1C(=O)N2C [Compound 040]
-- reply A (>66% degradation)

---

# measuredOn: HSP90α protein (Homo sapiens, UniProt P07900)
# Construct: purchased BPS Bioscience #50298
# protocolDescription: HSP90α-binding FP (FITC) assay
# conditionLabel: FP competition with FITC-geldanamycin
IC50 values for the compounds below.

• CCOc1cc(N2CCC(C(=O)N3CCC(CN4CCN(Cc5ccc(-n6c(O)nnc6-c6cc(CC)c(O)cc6O)cc5)CC4)CC3)CC2)ccc1Nc1ncc2c(n1)N(C)c1ccccc1C(=O)N2C = 100 to 1000 nM
• CCOc1cc(N2CCC(C(=O)NCCOCc3ccc(-n4c(O)nnc4-c4cc(C(C)C)c(O)cc4O)cc3)CC2)ccc1Nc1ncc2c(n1)N(C)c1ccccc1C(=O)N2C = 100 to 1000 nM
• CCOc1cc(N2CCC(C(=O)N3CCC(CN4CCN(Cc5ccc(-n6c(O)nnc6-c6cc(C(C)C)c(O)cc6OC)cc5)CC4)CC3)CC2)ccc1Nc1ncc2c(n1)N(S(C)(=O)=O)c1ccccc1C(=O)N2C = > 1000 nM
• CCOc1cc(N2CCC(C(=O)N3CCC(CN4CCN(C(=O)c5ccc(-n6c(O)nnc6-c6cc(C(C)C)c(O)cc6O)cc5)CC4)CC3)CC2)ccc1Nc1ncc2c(n1)N(C)c1ccccc1C(=O)N2C = 100 to 1000 nM

-- ask GET /values?readout=IC50&system=HSP90α protein (Homo sapiens, UniProt P07900)&item= CCOc1cc(N2CCC(C(=O)NCCOCCOCCOc3ccc(-n4c(O)nnc4-c4cc(CC)c(O)cc4O)cc3)CC2)ccc1Nc1ncc2c(n1)N(C)c1ccccc1C(=O)N2C
-- reply 100 to 1000 nM

-- ask Subsequent entry: CCOc1cc(N2CCC(C(=O)N3CCC(CN4CCC(COc5ccc(Nc6cc(-n7nc(C(F)(F)F)c8c7CC(C)(C)CC8=O)ccc6C(N)=O)cc5)CC4)CC3)CC2)ccc1Nc1ncc2c(n1)N(C)c1ccccc1C(=O)N2C
-- reply 100 to 1000 nM

-- ask Item: CCOc1cc(N2CCC(C(=O)NCCOc3cccc(CN(C)Cc4ccc(-n5c(O)nnc5-c5cc(C(C)C)c(O)cc5O)cc4)c3)CC2)ccc1Nc1ncc2c(n1)N(C)c1ccccc1C(=O)N2C
-- reply 100 to 1000 nM

-- ask What do you get for CCOc1cc(N2CCC(C(=O)NCCc3ccc(-n4c(O)nnc4-c4cc(C(C)C)c(O)cc4O)cc3)CC2)ccc1Nc1ncc2c(n1)N(C)c1ccccc1C(=O)N2C ?
-- reply 100 to 1000 nM

-- ask Now the compound CCOc1cc(N2CCC(C(=O)NCCOCCOCCOCCOc3ccc(Nc4cc(-n5nc(C(F)(F)F)c6c5CC(C)(C)CC6=O)ccc4C(N)=O)cc3)CC2)ccc1Nc1ncc2c(n1)N(C)c1ccccc1C(=O)N2C
-- reply > 1000 nM

-- ask Now try CCOc1cc(N2CCC(OCC(=O)N3CCN(Cc4ccc(-n5c(O)nnc5-c5cc(C(C)C)c(O)cc5O)cc4)CC3)CC2)ccc1Nc1ncc2c(n1)N(C)c1ccccc1C(=O)N2C .
-- reply < 100 nM

-- ask Queued: CCOc1cc(N2CCC(C(=O)NCCOCCOCCOc3ccc(-n4c(O)nnc4-c4cc(C(C)C)c(O)cc4O)cc3)CC2)ccc1Nc1ncc2c(n1)N(C)c1ccccc1C(=O)N2C
-- reply 100 to 1000 nM

-- ask What about CCOc1cc(N2CCC(C(=O)NCC3CCN(C(=O)C4CCN(Cc5ccc(-n6c(O)nnc6-c6cc(C(C)C)c(O)cc6O)cc5)CC4)C3)CC2)ccc1Nc1ncc2c(n1)N(C)c1ccccc1C(=O)N2C (stereo not drawn) ?
-- reply 100 to 1000 nM

-- ask Entry to check: CCOc1cc(N2CCC(C(=O)NCC3CCN(C(=O)C4CCN(Cc5ccc(-n6c(O)nnc6-c6cc(CC)c(O)cc6O)cc5)CC4)C3)CC2)ccc1Nc1ncc2c(n1)N(C)c1ccccc1C(=O)N2C (stereo not drawn)
-- reply 100 to 1000 nM

-- ask Now this one: CCOc1cc(N2CCC(C(=O)N3CCC(CN4CCN(CCOc5ccc(Nc6cc(-n7nc(C(F)(F)F)c8c7CC(C)(C)CC8=O)ccc6C(N)=O)cc5)CC4)CC3)CC2)ccc1Nc1ncc2c(n1)N(C)c1ccccc1C(=O)N2C
-- reply > 1000 nM

-- ask Now consider CCOc1cc(N2CCC(OCC(=O)NCCOCCN3CCN(Cc4ccc(-n5c(O)nnc5-c5cc(C(C)C)c(O)cc5O)cc4)CC3)CC2)ccc1Nc1ncc2c(n1)N(C)c1ccccc1C(=O)N2C and answer again.
-- reply < 100 nM

-- ask Try this compound next: CCOc1cc(N2CCC(C(=O)N3CCC(CN4CCN(C(=O)c5ccc(-n6c(O)nnc6-c6cc(C(C)C)c(O)cc6O)cc5)CC4)CC3)CC2)ccc1Nc1ncc2c(n1)N(S(C)(=O)=O)c1ccccc1C(=O)N2C
-- reply 100 to 1000 nM

-- ask Moving on to CCOc1cc(N2CCC(C(=O)NCCOCCOc3ccc(-n4c(O)nnc4-c4cc(C(C)C)c(O)cc4O)cc3)CC2)ccc1Nc1ncc2c(n1)N(C)c1ccccc1C(=O)N2C
-- reply 100 to 1000 nM

-- ask Quick one: CCOc1cc(N2CCC(C(=O)NCC3CCN(C(=O)C4CCN(Cc5ccc(-n6c(O)nnc6-c6cc(CC)c(O)cc6O)cc5)CC4)CC3)CC2)ccc1Nc1ncc2c(n1)N(C)c1ccccc1C(=O)N2C
-- reply 100 to 1000 nM

---

# measuredOn: HSP90α protein (Homo sapiens)
# Construct: purchased BPS Bioscience #50298
# protocolDescription: HSP90α-binding FP (BODIPY) assay
# conditionLabel: FP competition with BODIPY-labeled RNK04010
# Protocol: Binding of test compounds to HSP90α protein was measured by fluorescent polarization (FP) using the HSP90α (N-terminal) Assay Kit (BPS Bioscience, #50298), following the manufacturer's instructions, except as noted. […] After the final step of adding HSP90α protein to each assay well, plates were mixed by brief shaking, incubated at 25° C. for 120 min for FITC-geldanamycin or 300 min for RNK04010, and fluorescence was measured using a PerkinElmer EnVision Plate Reader.
A collection of compounds and their measured IC50

// below: answered compounds
- CCOc1cc(N2CCC(C(=O)NCC3CCN(C(=O)C4CCN(Cc5ccc(-n6c(O)nnc6-c6cc(CC)c(O)cc6O)cc5)CC4)CC3)CC2)ccc1Nc1ncc2c(n1)N(S(C)(=O)=O)c1ccccc1C(=O)N2C [Compound 079]: < 0.1 µM
- CCOc1cc(N2CCC(C(=O)NCc3ccc(-n4c(O)nnc4-c4cc(CC)c(O)cc4O)cc3F)CC2)ccc1Nc1ncc2c(n1)N(S(C)(=O)=O)c1ccccc1C(=O)N2C [Compound 088]: 0.1 to 1 µM
- CCOc1cc(N2CCC(C(=O)N3CCC(CN4CCN(Cc5ccc(-n6c(C(=O)NC(C)C(F)(F)F)nnc6-c6cc(CC)c(O)cc6O)cc5)CC4)CC3)CC2)ccc1Nc1ncc2c(n1)N(C)c1ccccc1C(=O)N2C (stereo not drawn) [Compound 114]: 0.1 to 1 µM
- CCOc1cc(N2CCC(C(=O)N3CCN(Cc4ccc(-n5c(O)nnc5-c5cc(C(C)C)c(O)cc5O)cc4)[C@@H](C)C3)CC2)ccc1Nc1ncc2c(n1)N(C)c1ccccc1C(=O)N2C [Compound 055]: 0.1 to 1 µM
- CCOc1cc(N2CCC(C(=O)N3CCN(Cc4ccc(-n5c(O)nnc5-c5cc(C(C)C)c(O)cc5O)cc4)CC3)CC2)ccc1N(C)c1ncc2c(n1)N(C)c1ccccc1C(=O)N2C [Compound 047]: 0.1 to 1 µM

-- ask Suppose we examine the compound CCOc1cc(N2CCC(C(=O)NCC3CCN(C(=O)C4CCN(Cc5ccc(-n6c(O)nnc6-c6cc(C(C)C)c(O)cc6O)cc5)CC4)CC3)CC2)ccc1Nc1ncc2c(n1)N(C)c1ccccc1C(=O)N2C [Compound 041] ; what IC50 value has been reported?
-- reply < 0.1 µM

-- ask Field entry: CCNC(=O)c1nnc(-c2cc(CC)c(O)cc2O)n1-c1ccc(CN2CCN(CC3CCN(C(=O)C4CCN(c5ccc(N(CC)c6ncc7c(n6)N(S(C)(=O)=O)c6ccccc6C(=O)N7C)c(OCC)c5)CC4)CC3)CC2)cc1 [Compound 135]
-- reply < 0.1 µM

-- ask Now this one: CCOc1cc(N2CCC(C(=O)NCc3ccc(-n4c(O)nnc4-c4cc(CC)c(O)cc4O)cc3C(F)(F)F)CC2)ccc1Nc1ncc2c(n1)N(C)c1ccccc1C(=O)N2C [Compound 031]
-- reply > 1 µM

-- ask Next compound: CCOc1cc(N2CCC(C(=O)NCCOCCNC(=O)O[C@H]3CC[C@H](Nc4cc(-n5nc(C(F)(F)F)c6c5CC(C)(C)CC6=O)ccc4C#N)CC3)CC2)ccc1Nc1ncc2c(n1)N(S(C)(=O)=O)c1ccccc1C(=O)N2C [Compound 111]
-- reply > 1 µM
